- tested.on: human voltage-gated sodium ion channel Nav1.7 (human)
- Sequence (Q15858 whole entry): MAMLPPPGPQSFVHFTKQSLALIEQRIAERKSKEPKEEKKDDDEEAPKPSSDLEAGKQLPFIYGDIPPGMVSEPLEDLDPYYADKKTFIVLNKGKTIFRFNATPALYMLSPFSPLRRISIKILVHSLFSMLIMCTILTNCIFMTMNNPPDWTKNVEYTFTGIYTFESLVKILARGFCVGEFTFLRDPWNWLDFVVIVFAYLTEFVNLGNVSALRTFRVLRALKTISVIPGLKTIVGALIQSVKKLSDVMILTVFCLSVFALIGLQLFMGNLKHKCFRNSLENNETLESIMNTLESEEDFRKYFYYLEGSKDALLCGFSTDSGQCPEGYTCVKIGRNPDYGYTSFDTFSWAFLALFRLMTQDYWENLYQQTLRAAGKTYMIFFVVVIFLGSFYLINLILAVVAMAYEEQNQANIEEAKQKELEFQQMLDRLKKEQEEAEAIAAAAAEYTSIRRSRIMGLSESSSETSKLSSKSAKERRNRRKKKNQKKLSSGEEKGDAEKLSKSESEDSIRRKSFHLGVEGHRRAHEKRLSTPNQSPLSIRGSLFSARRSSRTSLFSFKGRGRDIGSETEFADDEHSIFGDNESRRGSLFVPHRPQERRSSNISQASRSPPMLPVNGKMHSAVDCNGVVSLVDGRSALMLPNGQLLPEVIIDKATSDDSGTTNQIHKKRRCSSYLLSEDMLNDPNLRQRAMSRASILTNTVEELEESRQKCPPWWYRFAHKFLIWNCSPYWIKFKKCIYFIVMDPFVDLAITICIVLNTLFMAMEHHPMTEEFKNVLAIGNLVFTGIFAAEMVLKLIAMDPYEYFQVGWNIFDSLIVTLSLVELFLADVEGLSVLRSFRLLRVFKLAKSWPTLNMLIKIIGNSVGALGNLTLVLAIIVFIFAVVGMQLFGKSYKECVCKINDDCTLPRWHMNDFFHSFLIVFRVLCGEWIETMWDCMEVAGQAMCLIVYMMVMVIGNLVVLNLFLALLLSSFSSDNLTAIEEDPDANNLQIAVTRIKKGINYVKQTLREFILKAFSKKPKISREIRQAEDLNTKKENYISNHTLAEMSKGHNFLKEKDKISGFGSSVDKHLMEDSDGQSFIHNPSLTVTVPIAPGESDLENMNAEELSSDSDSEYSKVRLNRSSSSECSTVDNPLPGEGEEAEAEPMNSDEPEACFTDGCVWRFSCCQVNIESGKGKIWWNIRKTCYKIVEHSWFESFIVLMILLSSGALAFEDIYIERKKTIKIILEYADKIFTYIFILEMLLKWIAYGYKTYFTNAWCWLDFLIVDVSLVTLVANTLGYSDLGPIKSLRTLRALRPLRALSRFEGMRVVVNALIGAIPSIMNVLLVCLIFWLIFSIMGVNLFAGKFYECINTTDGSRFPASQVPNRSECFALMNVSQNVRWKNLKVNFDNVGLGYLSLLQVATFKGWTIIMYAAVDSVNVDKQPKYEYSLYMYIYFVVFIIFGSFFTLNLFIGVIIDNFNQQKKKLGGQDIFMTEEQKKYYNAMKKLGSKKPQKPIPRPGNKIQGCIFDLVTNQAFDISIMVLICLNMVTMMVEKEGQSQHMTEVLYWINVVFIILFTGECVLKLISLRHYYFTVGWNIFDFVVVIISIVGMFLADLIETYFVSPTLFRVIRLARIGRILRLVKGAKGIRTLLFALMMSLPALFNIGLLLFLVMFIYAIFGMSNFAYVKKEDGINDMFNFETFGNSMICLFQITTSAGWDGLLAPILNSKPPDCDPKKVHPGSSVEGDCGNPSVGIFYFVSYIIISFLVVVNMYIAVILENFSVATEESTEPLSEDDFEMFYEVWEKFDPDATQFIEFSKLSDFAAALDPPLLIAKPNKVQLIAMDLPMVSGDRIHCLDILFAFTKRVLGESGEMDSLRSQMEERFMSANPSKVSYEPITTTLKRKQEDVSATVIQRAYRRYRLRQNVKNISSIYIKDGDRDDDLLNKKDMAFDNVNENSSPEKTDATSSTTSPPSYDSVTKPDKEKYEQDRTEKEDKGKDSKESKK
Listing: IC50 of inhibition of hNav1.7 currents, whole-cell patch clamp, HEK293T of selected binders
Use µM as the unit, but write only the number.

# count of solved cases: 5
CLGFGEKCNPSNKCCKSSSLVCSQKHKWCKY [truncated peptide T10 (from Ca2a)] : 53.5
CLGFGEKCNPSKCCKSLVCQKHKWCKY [truncated peptide T2 (from Ca2a)] : 16.5
CLGFGEKCNNDKCCKSLVCQKHKWCKY [truncated peptide T3 (from Ca2a)] : 39.6
CLGFGEKCNPSNDCCKSSSLVCSQKHKWCKY [truncated peptide T9 (from Ca2a)] : 67.3
CLGFGEKCNPSDKCCKSSSLVCSQKHKWCKY [truncated peptide T11 (from Ca2a)] : 49.2

Specify measured IC50 of inhibition of hNav1.7 currents, whole-cell patch clamp, HEK293T for CLGFGEKCCCKSSSLVCSQKHKWCKY [truncated peptide T1 (from Ca2a)] . 14.7

Specify measured IC50 of inhibition of hNav1.7 currents, whole-cell patch clamp, HEK293T for CLGFGEKCNDKCCKLVCSQHKWCKY [truncated peptide T13 (from Ca2a)] . 8.89
